List of Max. Activity (fold over background) values.
EXPERIMENTAL TARGET: Vg9/Vd2 TCR on SKW3_4 cells (UniProt Q99603)
Sequence (Q99603 21-122, chain 1 of 2): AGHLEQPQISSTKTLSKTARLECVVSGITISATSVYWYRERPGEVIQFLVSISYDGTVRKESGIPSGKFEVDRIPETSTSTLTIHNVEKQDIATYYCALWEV
Sequence (A0JD36 20-115, chain 2 of 2, further chain): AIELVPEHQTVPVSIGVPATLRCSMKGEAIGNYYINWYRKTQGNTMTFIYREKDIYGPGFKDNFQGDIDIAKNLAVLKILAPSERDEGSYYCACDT
RUN DESCRIPTION: flow cytometry, dose-response binding at 37° C. on SKW3_4 cells expressing Vg9/Vd2
Format: numeric value only, no unit, no commentary.

- BINDER: "VG9B409 (antibody, human IgG1, kappa, V domains shown) VH: EVQLVESGAEVKKPGASVKVSCKASGYTLTSYYMHWVRQAPGQGLEWMGIINPSGGSTSYAQKFQGRVTMTRDTSTSTVYMELSSLRSEDTAVYYCARGSYGWYFDLWGRGTLVTVSS VL: EIVLTQSPGTLSLSPGERATLSCRASQSVTSSYLAWYQQKPGQTPRLLIYGASSRATGIPDRISGSGSGTDFTLTVSRLEPEDFAVYYCQQYGSSPPYTFGQGTKLEIKR"
  Max. Activity (fold over background): 176
- BINDER: "VG9B162 (antibody, human IgG1, lambda, V domains shown) VH: QVQLVESGAEVTKPGASVKVSCKASGYTFTGDYMHWVRQAPGQGLEWMGWINPNSGYTNYAQKFQGRVTMTRDTSISTAYMELSRLRSDDTAVYYCAREGDAFDVWGQGTMVTVSS VL: QLVLTQSSSASGSPGQSVTISCTGTSSDVGGYNYVSWYQQHPGKAPKLMIYEVSKRPSGVPDRFSGSKSGNTASLTVSGLQAEDEADYYCNSYAGSNNFEVFGGGTKLTVLG"
  Max. Activity (fold over background): 96.3
- BINDER: "VG9B57 (antibody, human IgG1, kappa, V domains shown) VH: EVQLVESGGGLVKPGGSLRLSCAASGFTFSSHDMNWVRQAPGKGLGWVSSISSSSSYIFYADSVKGRFTISRDNAKNSLYLQMSSLRAEDTAVYYCARDLGVGVRDYYYYGMDVWGQGTMVTVSS VL: DIQMTQSPSAMSASVGDRVTITCRASQDITNYLAWFQQKPGKVPKRLIYAASSLQGGVPSRFSGSGSGTEFTLTISSLQPEDFSTYYCLQHDTYPYTFGQGTKLEIKR"
  Max. Activity (fold over background): 30.8
- BINDER: "VG9B44 (antibody, human IgG1, kappa, V domains shown) VH: QVQLQQSGPGLVKPSQTLSLTCAISGDSVSSNSAAWNWIRQSPSRGLEWLGRTYYRSKWYNDYPISVKSRISINPDTSKNQFSLQLNSVTPEDTAVYYCARESGSYYTDGFDIWGQGTMVTVSS VL: DIQMTQSPSFLSASVGDRVTITCRASQGISSYLAWYQQKPGKAPKLLIYAASTLQSGVPSRFSGSGSGTEFTLTISSLQPEDFATYYCQEFNSYPYTFGQGTKLEIKR"
  Max. Activity (fold over background): 170

Here is another binder to look at.
So, VG9B152 (antibody, human IgG1, lambda, V domains shown) VH: EVQLVESGGGLVRPGGSLRLSCEASGFTFSSYSMIWVRQAPGKGLEWVSSISSSSDYIYNADSVKGRFTISRDNAKNSLYLQMNSLRAEDTAVYYCARDWELLGFDCWGQGTTVTVSS VL: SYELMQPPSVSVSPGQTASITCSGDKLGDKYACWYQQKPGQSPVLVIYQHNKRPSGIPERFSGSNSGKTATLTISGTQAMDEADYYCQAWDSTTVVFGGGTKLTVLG ? Its Max. Activity (fold over background) was 141
